Where these numbers come from: paper PMC8035703

- Experimental Protocol: Pharmacokinetics of regorafenib in plasma of freely moving rats with or without RT (HPLC-UV)
- Format: in vivo, Sprague-Dawley rats
- Conditions: male, Sprague-Dawley, rat, plasma, po, 16 mg/kg, rat plasma; RT2 Gy × 3 f'x with regorafenib 16 mg/kg p.o. × 3 d (concurrent); read-out: t½
Metric Name: half-life (h)
Hi! Could you send only the number? It should be in h, unit omitted.

half-life for "CNC(=O)c1cc(Oc2ccc(NC(=O)Nc3ccc(Cl)c(C(F)(F)F)c3)c(F)c2)ccn1" ?
6.2

----------
- Experimental Protocol: Organ distribution of regorafenib in rats with or without RT
- Type: in vivo, Sprague-Dawley rats
- Conditions: Sprague-Dawley, rat, heart, oral, 16 mg/kg, rat, 4 h after oral administration; RT2 Gy × 1 f'x followed by regorafenib 16 mg/kg × 1 d (sequential); read-out: Concentration in heart
Metric Name: concentration at 4 h
Please answer in the form of a number followed by its unit of measurement.

concentration at 4 h for CNC(=O)c1cc(Oc2ccc(NC(=O)Nc3ccc(Cl)c(C(F)(F)F)c3)c(F)c2)ccn1 [regorafenib, Regorafenib] ?
780 ng/g
